Experiment summary: Selectivity index, ratio of CC50 for human Huh7.5 cells to EC50 for Hepatitis C virus JFH-1 J6 genotype 2a infected in human Huh7.5 cells
Format: toxicity, cell-based, Huh-7
Condition parameters: read-out: Ratio CC50/EC50
Item-by-item account of selectivity ratio
Measurement kind: selectivity ratio

| Mol smiles | Measurement kind | Endpoint result |
| --- | --- | --- |
| O=C(/C=C/c1c[nH]c2ccccc12)N1CCN(Cc2ccc(C(F)(F)F)cc2)CC1 | selectivity ratio | 1.8 |
| CCN(CC)C(=O)/C=C/c1c[nH]c2ccccc12 | selectivity ratio | 1.6 |
| CC(C)(C)c1ccc(NC(=O)CCc2c[nH]c3ccccc23)cc1 | selectivity ratio | 2.3 |

###

Tested on: Hepatitis C virus
Experiment summary: Antiviral activity against Hepatitis C virus JFH-1 J6 genotype 2a infected in human Huh7.5 cells assessed as inhibition of viral RNA replication after 72 hrs by luciferase reporter gene assay
Assay type: functional, organism-based, Hepacivirus hominis
Condition parameters: subtype 2a JFH1 J6, Huh-7, 72 h
The reader will find reported EC50 values listed item by item below.

| Mol smiles | Tgt | Unit annotation | Relation symbol | EC50 |
| --- | --- | --- | --- | --- |
| C/C(=C\c1c[nH]c2cc(C)ccc12)C(=O)Nc1ccc(C(C)(C)C)cc1 | Hepatitis C virus | µM | = | 4.5 |
| C/C(=C\c1c[nH]c2ccccc12)C(=O)NCCCn1ccnc1 | Hepatitis C virus | µM | = | 33.7 |
| C/C(=C\c1c[nH]c2ccccc12)C(=O)NCCN(C)C | Hepatitis C virus | µM | = | 64.2 |
| COc1ccc2[nH]cc(/C=C(\C)C(=O)Nc3ccc(C(C)(C)C)cc3)c2c1 | Hepatitis C virus | µM | = | 3 |
| C/C(=C\c1c[nH]c2ccccc12)C(=O)O | Hepatitis C virus | µM | > | 10 |
| CNC(=O)/C(C)=C/c1c[nH]c2ccccc12 | Hepatitis C virus | µM | > | 10 |

###

Test system: Hepatitis C virus
Experiment summary: Antiviral activity against Hepatitis C virus JFH-1 J6 genotype 2a infected in human Huh7.5 cells assessed as inhibition of viral core synthesis after 120 hrs by Western blot analysis
Assay type: functional, organism-based, Hepacivirus hominis
Condition parameters: subtype 2a JFH1 J6, Huh-7, 120 h
pEC50: −log10 of the molar value.

| Mol smiles | pEC50 |
| --- | --- |
| C/C(=C\c1c[nH]c2ccc(C#N)cc12)C(=O)Nc1ccc(C(C)(C)C)cc1 | 5.70 |

###

Experiment summary: Inhibition of recombinant HCV N-terminal hexahistidine-tagged NS5B Cdelta21 RdRp expressed in Escherichia coli assessed as incorporation of [alpha-32P]-UTP in RNA after 2 hrs by autoradiographic analysis
Set-up: species or system Hepacivirus hominis
Measurement kind: IC50 (nM)

| Mol smiles | Measurement kind | Endpoint result |
| --- | --- | --- |
| C/C(=C\c1c[nH]c2ccc(C#N)cc12)C(=O)Nc1ccc(C(C)(C)C)cc1 | IC50 | 292 |

###

Experiment summary: Cytotoxicity against human Huh7.5 cells assessed as cell viability after 72 hrs by MTT assay
Assay type: cell-based, Huh-7

| Mol smiles | Relation symbol | CC50 at 72 h / µM |
| --- | --- | --- |
| O=C(/C=C/c1c[nH]c2ccccc12)N1CCN(Cc2ccc(C(F)(F)F)cc2)CC1 | = | 27.9 |
| C/C(=C\c1c[nH]c2ccc(C#N)cc12)C(=O)Nc1ccc(C(C)C)cc1 | = | 137 |
| COc1ccc2[nH]cc(/C=C(\C)C(=O)Nc3ccc(C(C)(C)C)cc3)c2c1 | = | 16.4 |
| CCN(CC)C(=O)/C=C/c1c[nH]c2ccccc12 | = | 98.7 |
| C/C(=C\c1c[nH]c2ccccc12)C(N)=O | > | 10 |
